B1: VH:VL chains; a variant is named by its letters at X, in order (parent)
chain 1: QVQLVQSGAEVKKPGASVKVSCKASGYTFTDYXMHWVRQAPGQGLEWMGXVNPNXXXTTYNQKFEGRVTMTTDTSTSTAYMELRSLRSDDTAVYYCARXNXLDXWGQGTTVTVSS
chain 2: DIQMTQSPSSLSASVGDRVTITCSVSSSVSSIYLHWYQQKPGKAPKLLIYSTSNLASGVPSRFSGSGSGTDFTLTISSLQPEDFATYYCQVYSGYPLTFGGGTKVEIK

- Variants of: B1
- Measurement Description: yeast display scFab, FACS + sequencing
Measured Quantity: non-specific binding call

Worked examples, 8 variants total:
{"Mutation Id": "YRGEGDAV", "Measured Quantity": "non-specific binding call", "Observed Measurement": "no binding"}
{"Mutation Id": "SRGRGSGA", "Measured Quantity": "non-specific binding call", "Observed Measurement": "binds"}
{"Mutation Id": "YARGTAVD", "Measured Quantity": "non-specific binding call", "Observed Measurement": "binds"}
{"Mutation Id": "YRKGSAAA", "Measured Quantity": "non-specific binding call", "Observed Measurement": "binds"}
{"Mutation Id": "VTGEDSGV", "Measured Quantity": "non-specific binding call", "Observed Measurement": "no binding"}
{"Mutation Id": "FRGRGYWV", "Measured Quantity": "non-specific binding call", "Observed Measurement": "binds"}
{"Mutation Id": "FKGKGSGA", "Measured Quantity": "non-specific binding call", "Observed Measurement": "binds"}
{"Mutation Id": "YEERSDAF", "Measured Quantity": "non-specific binding call", "Observed Measurement": "no binding"}

(Q) What value of measured non-specific binding call is listed for "VKERGDAV" ?
(A) no binding

(Q) What value of measured non-specific binding call is listed for "YRGRTSLD" ?
(A) binds

(Q) What value of measured non-specific binding call is listed for "YKGGSAAA" ?
(A) binds

(Q) What value of measured non-specific binding call is listed for "YRTRSAAA" ?
(A) binds

(Q) What value of measured non-specific binding call is listed for "DRGGDDAA" ?
(A) no binding

(Q) What value of measured non-specific binding call is listed for "YRGKDSGA" ?
(A) binds

meta.source: the emibetuzumab library of Makowski et al. (2022)
